# Lookup of reported Relative to UNC0638 Average keyed by entry
assayed.target: T1, G9a and GLP (Homo sapiens, UniProt Q96KQ7+Q9H9B1)
T1 sequence (Q96KQ7 2-1210 limits assumed): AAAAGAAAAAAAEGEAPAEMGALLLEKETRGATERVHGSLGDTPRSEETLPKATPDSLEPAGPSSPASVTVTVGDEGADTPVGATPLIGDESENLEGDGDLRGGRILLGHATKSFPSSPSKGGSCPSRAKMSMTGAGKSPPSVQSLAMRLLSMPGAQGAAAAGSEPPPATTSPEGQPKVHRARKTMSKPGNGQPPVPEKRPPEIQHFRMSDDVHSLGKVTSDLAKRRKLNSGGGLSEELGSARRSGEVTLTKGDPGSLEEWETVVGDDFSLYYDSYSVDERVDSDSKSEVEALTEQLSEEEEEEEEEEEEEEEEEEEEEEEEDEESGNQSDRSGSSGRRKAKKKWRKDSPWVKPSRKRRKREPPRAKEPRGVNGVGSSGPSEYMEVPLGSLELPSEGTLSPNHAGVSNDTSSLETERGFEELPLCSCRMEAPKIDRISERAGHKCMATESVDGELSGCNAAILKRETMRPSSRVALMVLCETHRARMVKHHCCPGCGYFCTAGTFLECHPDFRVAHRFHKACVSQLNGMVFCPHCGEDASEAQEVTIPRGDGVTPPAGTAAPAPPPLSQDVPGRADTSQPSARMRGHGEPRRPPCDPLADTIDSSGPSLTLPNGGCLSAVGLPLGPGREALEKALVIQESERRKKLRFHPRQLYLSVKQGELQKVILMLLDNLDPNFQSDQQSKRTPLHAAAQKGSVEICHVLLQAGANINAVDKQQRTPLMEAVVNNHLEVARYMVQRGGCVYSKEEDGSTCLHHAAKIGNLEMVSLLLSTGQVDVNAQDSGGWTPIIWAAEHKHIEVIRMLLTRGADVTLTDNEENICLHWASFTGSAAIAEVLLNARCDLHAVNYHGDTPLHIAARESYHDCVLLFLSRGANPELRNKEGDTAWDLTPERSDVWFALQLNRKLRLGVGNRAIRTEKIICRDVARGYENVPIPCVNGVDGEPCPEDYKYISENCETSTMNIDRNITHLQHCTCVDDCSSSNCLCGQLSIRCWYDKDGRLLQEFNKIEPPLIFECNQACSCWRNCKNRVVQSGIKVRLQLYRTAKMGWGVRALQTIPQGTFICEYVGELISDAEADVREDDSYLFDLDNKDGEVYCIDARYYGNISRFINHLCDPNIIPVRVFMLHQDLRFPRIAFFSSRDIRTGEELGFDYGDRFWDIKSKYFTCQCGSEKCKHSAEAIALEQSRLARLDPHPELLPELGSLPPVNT
T1 sequence (Q9H9B1 2-1298 limits assumed): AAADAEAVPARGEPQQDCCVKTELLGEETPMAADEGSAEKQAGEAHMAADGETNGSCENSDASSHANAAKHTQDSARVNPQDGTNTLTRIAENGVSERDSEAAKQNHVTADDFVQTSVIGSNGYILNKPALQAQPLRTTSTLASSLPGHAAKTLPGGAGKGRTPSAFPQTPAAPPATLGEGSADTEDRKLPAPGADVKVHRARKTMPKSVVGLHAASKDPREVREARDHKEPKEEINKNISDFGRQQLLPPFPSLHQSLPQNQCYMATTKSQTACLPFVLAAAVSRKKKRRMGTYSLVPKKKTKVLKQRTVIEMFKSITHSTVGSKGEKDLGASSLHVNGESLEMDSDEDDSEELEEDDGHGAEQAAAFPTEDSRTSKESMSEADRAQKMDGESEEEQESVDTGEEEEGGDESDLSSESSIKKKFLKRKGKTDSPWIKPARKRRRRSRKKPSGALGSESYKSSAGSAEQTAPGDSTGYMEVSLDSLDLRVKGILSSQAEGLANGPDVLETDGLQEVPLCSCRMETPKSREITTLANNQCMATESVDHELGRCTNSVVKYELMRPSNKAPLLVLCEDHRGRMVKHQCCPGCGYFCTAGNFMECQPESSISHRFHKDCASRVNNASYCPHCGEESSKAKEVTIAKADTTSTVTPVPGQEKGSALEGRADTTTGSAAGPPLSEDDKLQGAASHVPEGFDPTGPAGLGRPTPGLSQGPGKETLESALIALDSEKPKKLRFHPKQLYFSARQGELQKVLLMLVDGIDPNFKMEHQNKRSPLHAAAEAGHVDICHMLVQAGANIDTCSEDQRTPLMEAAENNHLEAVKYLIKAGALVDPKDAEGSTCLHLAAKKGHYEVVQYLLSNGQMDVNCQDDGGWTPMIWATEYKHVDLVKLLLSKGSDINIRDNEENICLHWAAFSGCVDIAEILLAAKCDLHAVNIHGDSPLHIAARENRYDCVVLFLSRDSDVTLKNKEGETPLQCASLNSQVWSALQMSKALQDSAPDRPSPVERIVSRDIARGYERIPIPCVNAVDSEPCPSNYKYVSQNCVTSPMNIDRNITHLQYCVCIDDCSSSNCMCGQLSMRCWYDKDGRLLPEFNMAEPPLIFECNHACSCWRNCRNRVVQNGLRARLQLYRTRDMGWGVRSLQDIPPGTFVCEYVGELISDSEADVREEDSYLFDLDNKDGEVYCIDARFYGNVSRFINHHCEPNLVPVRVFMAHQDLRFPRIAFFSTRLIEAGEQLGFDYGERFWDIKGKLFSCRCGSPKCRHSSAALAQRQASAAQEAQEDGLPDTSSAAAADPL
method.summary: Triple SILAC pull-down after UNC0638 treatment of 293T cells, DMSO/UNC0638 ratio of protein captured by 3×MBT;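 note: mass spectrometry (Q-Exactive) SILAC quantitation, DMSO/UNC0638 ratio computed after subtracting 3×MBTD355N mutant pull-down background, only proteins with at least twofold 3×MBT over mutant signal considered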
Assay type: cell-based
Set-up: cells were treated for 24 hours with UNC0638 at 2.5 μM or DMSO vehicle control; endogenous in cells; host or cells: HEK 293T
condition.info: average of UNC Light and UNC Heavy experiments
Enter your answer as a number in log base 2; do not include the unit.

molecule	assay.metric	numeric.readout
C14orf166 (protein, UniProt Q9Y224 1-244, looked up) RNA transcription, …: MFRRKLTALDYHNPAGFNCKDETEFRNFIVWLEDQKIRHYKIEDRGNLRNIHSSDWPKFFEKYLRDVNCPFKIQDRQEAIDWLLGLAVRLEYGDNAEKYKDLVPDNSKTADNATKNAEPLINLDVNNPDFKAGVMALANLLQIQRHDDYLVMLKAIRILVQERLTQDAVAKANQTKEGLPVALDKHILGFDTGDAVLNEAAQILRLLHIEELRELQTKINEAIVAVQAIIADPKTDHRLGKVGR	Relative to UNC0638 Average	0.16

Attention now turns to another entry.
[Q] Quick one: Relative to UNC0638 Average of HNRNPC (protein, UniProt P07910 2-306, looked up) Heterogeneous nuclear …: ASNVTNKTDPRSMNSRVFIGNLNTLVVKKSDVEAIFSKYGKIVGCSVHKGFAFVQYVNERNARAAVAGEDGRMIAGQVLDINLAAEPKVNRGKAGVKRSAAEMYGSVTEHPSPSPLLSSSFDLDYDFQRDYYDRMYSYPARVPPPPPIARAVVPSKRQRVSGNTSRRGKSGFNSKSGQRGSSKSGKLKGDDLQAIKKELTQIKQKVDSLLENLEKIEKEQSKQAVEMKNDKSEEEQSSSSVKKDETNVKMESEGGADDSAEEGDLLDDDDNEDRGDDQLELIKDDEKEAEEGEDDRDSANGEDDS ?
[A] 0.13
